ASSAY_TEXT: Stability in simulated intestinal fluid (FaSSIF with 1% pancreatin)
Format: in vitro ADME
EXPERIMENTAL_CONTEXT: pig, pH 6.5, Table 2A, 20 μM in FaSSIF with 1% pancreatin, 37° C., percent in brackets not explained, read-out: SIF Half life
OBSERVABLE: half-life at 20 μM (min)
Provide only the numeric value, understood in min.

Look up half-life at 20 μM of CC[C@H](C)[C@@H]1NC(=O)[C@@H](NC(=O)[C@@H]2CCCN2C(=O)[C@@H](NC(=O)[C@H](Cc2cnc[nH]2)NC(=O)[C@@H](NC(=O)[C@H](CCC(=O)O)NC(=O)CC(C)C)C(C)O)C(c2ccccc2)c2ccccc2)CSSC[C@@H](C(N)=O)NC(=O)[C@@H](CCCCN)NC(=O)C[C@H](Cc2ccccc2)NC(=O)[C@H](CCCCNC(=O)COCCOCCNC(=O)COCCOCCNC(=O)CCCCCNC(=O)CCCCCCCCCCCCCCCCC(=O)O)NC1=O (stereo partly shown) [Compound 12] and report it.
90
